What Mean maximum fluorescence intensity (Top MFI) was measured for each of the following?
target: murine CLDN18.2 (mCLDN18.2) (murine) (UniProt P56857); assay: FACS, HEK293-mCLDN18.2 cells
Give bare numbers, in MFI.

Some binders with recorded Mean maximum fluorescence intensity (Top MFI):
Query string: Provide one value: measured Mean maximum fluorescence intensity (Top MFI) of hu253C4-N31Q-1 (antibody, V domains shown) VH: QVQLVQSGAEVKKPGASVKVSCKASGYIFTSYWIHWVRQAPGQGLEWMGRFYPGTGTAYYNENFEGRVTMTRDTSISTAYMELSRLRSDDTAVYYCAREGYGKGNSMDYWGQGTTVTVSS VL: DIVMTQSPDSLAVSLGERATINCKSSQSLLQSGNQKNYLTWYQQKPGQPPKLLIYWASTRESGVPDRFSGSGSGTDFTLTISSLQAEDVAVYYCQNDYYFPFTFGGGTKLEIK
Result string: 65000

Query string: Provide one value: measured Mean maximum fluorescence intensity (Top MFI) of hu299B2-S32A-2 (antibody, V domains shown, also called humanized antibody hu299B2-S32A) VH: QVQLVQSGAEVKKPGASVKVSCKASGYIFTNYWIHWVRQAPGQGLEWMGRIYPGTGNTYYNEKFTGRVTMTRDTSTSTVYMELSSLRSEDTAVYYCAREGYGKGNSMDYWGQGTTVTVSS VL: DIVMTQSPDSLAVSLGERATMNCKSSQSLLNAGNQKNYLTWYQQKPGQPPKLLFYWASTRESGVPDRFSGSGSGTDFTLTISSLQAEDVAVYHCQNAYYYPYTFGGGTKLEIK
Result string: 90400

Query string: Provide one value: measured Mean maximum fluorescence intensity (Top MFI) of ch-42D2 (antibody, V domains shown, also called chimeric antibody of clone 42D2) VH: EVQLQQSGPVLVKPGASVKMSCKASGYTFTDYQMNWVKQSHGKSLEWIGFINPYNGGIRYNQKFKGKATLTVDKSSSTAYMELNSLTSEDSAVYYCATIYFGNSFANWGQGTLVTVSA VL: DIVMTQSPSSLTVTAGEKVTMSCKPSQSLLNSGNQKNYLTWYQQKPGQPPRLLIYWASTRESGVPDRFTGSGSGTDFTLTISSVQAEDLAVYYCQNDYIYPYTFGGGTNLEIK
Result string: 7400

Query string: Provide one value: measured Mean maximum fluorescence intensity (Top MFI) of ch-239E9 (antibody, V domains shown, also called chimeric antibody of clone 239E9) VH: QVQLQQSGPELVRPGVSVKISCKGSSYTFTDYTMHWVKQSHAKSLEWIGFIGVYYGNTNYNQKFKGKATMTVDKSSSTAYMELARLTSEDSAVYYCARIGRGNAMDYWGQGTSVTVSS VL: DIVMTQSPSSLTVTAGEKVTMSCKSSQSLLNSGNQKNYLTWYQQKPGQPPKLLIYWASTRESGVPDRFTGSGSGTDFTLTISSVQAEDLAVYNCQNAYSYPFTFGSGTKLEIK
Result string: 12700

More entries:
Query string: Provide one value: measured Mean maximum fluorescence intensity (Top MFI) of hu299B2-S32A-1 (antibody, V domains shown, also called humanized antibody hu299B2-S32A) VH: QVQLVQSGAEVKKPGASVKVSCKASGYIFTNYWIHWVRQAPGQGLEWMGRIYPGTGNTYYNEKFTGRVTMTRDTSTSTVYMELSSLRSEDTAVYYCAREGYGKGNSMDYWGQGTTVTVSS VL: DIVMTQSPDSLAVSLGERATINCKSSQSLLNAGNQKNYLTWYQQKPGQPPKLLIYWASTRESGVPDRFSGSGSGTDFTLTISSLQAEDVAVYYCQNAYYYPYTFGGGTKLEIK
Result string: 88800

Values were extracted from patent US20220411492A1.
